Exercise: for every item that follows, state its recorded bioavailability.
experimental.protocol: Oral bioavailability in Sprague-Dawley rat
Type: ADME, organism-based
assay.conditions: in vivo

Quick one: bioavailability for Cc1ccc(CC(C)(C)NC[C@@H](O)COc2cc(C3CC4CC3C3C(C(=O)O)C43)ccc2C#N)cc1F (mixture of isomers) ?
< 10%

Would you kindly share the measured bioavailability for CC(C)(CC1Cc2ccccc2C1)NC[C@@H](O)COc1cc(C2CC3CC2C2C(C(=O)O)C32)ccc1C#N (mixture of isomers) ?
< 10%

====

experimental.protocol: Clearance in Sprague-Dawley rat at 1 mg/kg, iv
Type: ADME, organism-based
Set-up: dose 1 mg/kg, route intravenous
assay.conditions: in vivo
Assignment: determine reported clearance for the given compounds.
Unit mL/min/kg implied. Number only.

Fill in: clearance of CC(C)(CC1Cc2ccccc2C1)NC[C@@H](O)COc1cc(C2CC3CC2C2C(C(=O)O)C32)ccc1C#N (mixture of isomers) is ___
70

# clearance lookup, item Cc1ccc(CC(C)(C)NC[C@@H](O)COc2cc(C3CC4CC3C3C(C(=O)O)C43)ccc2C#N)cc1F (mixture of isomers)
70
